- target_system: T1, Biotin-huCGRPaSA (human, not fully specified; biotin (position not given))
- T1 construct: exact construct ('aSA') not explained; also called Biotin CGRPaSA; full-length (1-37) CGRP
- T1 peptide: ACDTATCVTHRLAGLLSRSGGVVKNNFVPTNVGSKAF
- experiment_notes: ELISA, supernatant; relative to chimeric C245
attribute_measured: Relative binding activity, % (%)

binder	measure_unit	value_observed
hu181 (antibody, V domains shown, 3E5 HC-3/3H10 LC2-1) VH: QVQLVQSGAEVKKPGASVKVSCKASGYTFTDYNMHWVRQAPGQGLEWMGYISPYNGGTAYNQKFKFRVTLTVDTSSSTAYMELSRLRSDDTVVYYCAREGLGGYWGQGTLVTVSS VL: DIVLTQSPDSLAVSLGERATINCKASQNIDYGGYSYMNWYQQKPGQPPKVLIYSVFNLESGVPDRFSGSGSGTDFTLTISSLQAEDVAVYYCQQSNEAPYTFGQGTKLEIK	%	67
hu207 (antibody, V domains shown, 3H10 HC-1/3H10 LC2-1) VH: QVQLVQSGAEVKKPGASVKVSCKASGYTFTDYNMHWVRQAPGQGLEWMGYIYPYNGHTVYNQKFRNRVTMTVDTSSSTAYMELRSLRSDDTAVYYCAKEGLGGYWGQGTLVTVSS VL: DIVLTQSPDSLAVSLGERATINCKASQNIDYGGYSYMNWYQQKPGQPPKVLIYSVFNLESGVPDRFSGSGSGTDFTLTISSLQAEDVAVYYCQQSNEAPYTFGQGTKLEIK	%	56
hu171 (antibody, V domains shown, 3E5 HC-3/1A2 LC2-2) VH: QVQLVQSGAEVKKPGASVKVSCKASGYTFTDYNMHWVRQAPGQGLEWMGYISPYNGGTAYNQKFKFRVTLTVDTSSSTAYMELSRLRSDDTVVYYCAREGLGGYWGQGTLVTVSS VL: DIVLTQSPASLAVSPGQRATITCKASQNIDYDGYAYLNWYQQKPGQPPKVLIYSVFNLESGVPARFSGSGSGTDFTLTINPVEADDTANYYCQQSNEFPYTFGQGTKLEIK	%	63
